# testedOn: Isocitrate dehydrogenase [NADP] cytoplasmic (Homo sapiens, UniProt O75874)
# Sequence (O75874 whole entry): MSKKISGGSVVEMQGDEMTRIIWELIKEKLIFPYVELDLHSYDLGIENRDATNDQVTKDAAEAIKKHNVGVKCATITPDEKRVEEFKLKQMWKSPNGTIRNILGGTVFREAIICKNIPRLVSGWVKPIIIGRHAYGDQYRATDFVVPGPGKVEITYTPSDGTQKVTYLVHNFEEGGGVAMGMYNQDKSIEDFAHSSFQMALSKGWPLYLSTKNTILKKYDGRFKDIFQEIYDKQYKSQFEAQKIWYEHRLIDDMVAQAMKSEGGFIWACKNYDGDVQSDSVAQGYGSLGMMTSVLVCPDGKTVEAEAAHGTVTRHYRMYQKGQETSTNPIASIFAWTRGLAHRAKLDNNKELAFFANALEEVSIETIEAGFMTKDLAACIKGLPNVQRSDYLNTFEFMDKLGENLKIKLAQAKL
# assayExplanation: Inhibition of wild type human IDH1 expressed in Escherichia coli BL21-CodonPlus assessed as NADPH production
parameterMeasured: Ki

{"columns": ["smilesData", "resultValue"],
 "data": [
  ["Cc1cc(Cc2ccc(-c3ccc(O)cc3)cc2)n(O)c(=O)c1", "15.2 µM"],
  ["COc1cccc(-c2ccc(Cc3cc(C)cc(=O)n3O)cc2)c1", "13 µM"],
  ["Cc1cc(Cc2cccc(O)c2)n(O)c(=O)c1", "> 30 µM"],
  ["COc1cccc(Cc2cc(C)cc(=O)n2O)c1", "> 30 µM"],
  ["O=C(NO)c1cccc(=O)n1O", "> 50 µM"],
  ["COc1ccc(-c2ccc(Cc3cc(C)cc(=O)n3O)cc2)cc1", "14 µM"]
]}

====

# assayExplanation: Cytotoxicity against human HT1080 cells up to 30 uM
# Format: cell-based
# conditionDetails: ht-1080

{"columns": ["smilesData", "Activity"],
 "data": [
  ["Cc1cc(Cc2ccccc2)n(O)c(=O)c1", "Non-toxic"],
  ["COc1cccc(-c2ccc(Cc3cc(C)cc(=O)n3O)cc2)c1", "Non-toxic"],
  ["O=c1cccc(Cc2ccccc2)n1O", "Non-toxic"],
  ["Cc1cc(Cc2ccc(O)cc2)n(O)c(=O)c1", "Non-toxic"],
  ["CC(C)c1cc(Cc2ccccc2)n(O)c(=O)c1", "Non-toxic"],
  ["COc1ccc(-c2ccc(Cc3cc(C)cc(=O)n3O)cc2)cc1", "Non-toxic"],
  ["Cc1cc(Cc2cccc(O)c2)n(O)c(=O)c1", "Non-toxic"]
]}

====

# testedOn: Isocitrate dehydrogenase [NADP] cytoplasmic (Homo sapiens, UniProt O75874, R132H)
# Sequence (O75874 2-414 R132H limits assumed): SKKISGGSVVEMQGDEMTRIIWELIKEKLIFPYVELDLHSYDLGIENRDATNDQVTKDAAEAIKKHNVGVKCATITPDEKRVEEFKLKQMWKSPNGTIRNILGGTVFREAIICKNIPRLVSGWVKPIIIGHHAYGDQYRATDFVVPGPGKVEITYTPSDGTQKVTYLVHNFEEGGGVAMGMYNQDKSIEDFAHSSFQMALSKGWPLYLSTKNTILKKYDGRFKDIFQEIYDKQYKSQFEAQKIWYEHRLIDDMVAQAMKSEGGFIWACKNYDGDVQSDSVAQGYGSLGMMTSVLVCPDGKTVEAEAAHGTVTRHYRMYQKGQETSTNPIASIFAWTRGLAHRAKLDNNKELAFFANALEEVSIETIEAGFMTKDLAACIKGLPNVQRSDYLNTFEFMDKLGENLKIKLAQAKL
# assayExplanation: Inhibition of human IDH1 R132H mutant expressed in Escherichia coli BL21-CodonPlus assessed as reduction in NADPH consumption
pKi: −log10 of the molar value.

{"columns": ["compound", "testedOn", "limitOperator", "pKi"],
 "data": [
  ["Cc1cc(Cc2cccc(C(N)=O)c2)n(O)c(=O)c1", "Isocitrate dehydrogenase [NADP] cytoplasmic (Homo sapiens, UniProt O75874, R132H)", "=", 5.07],
  ["COc1cccc(-c2ccc(Cc3cc(C)cc(=O)n3O)cc2)c1", "Isocitrate dehydrogenase [NADP] cytoplasmic (Homo sapiens, UniProt O75874, R132H)", "=", 6.85],
  ["Cc1cc(Cc2ccc(C#N)cc2)n(O)c(=O)c1", "Isocitrate dehydrogenase [NADP] cytoplasmic (Homo sapiens, UniProt O75874, R132H)", "=", 4.90],
  ["O=C(NO)c1ccc(=O)n(O)c1", "Isocitrate dehydrogenase [NADP] cytoplasmic (Homo sapiens, UniProt O75874, R132H)", "<", 4.30],
  ["Cc1ccn(O)c(=O)c1Cc1cccc(O)c1", "Isocitrate dehydrogenase [NADP] cytoplasmic (Homo sapiens, UniProt O75874, R132H)", "=", 4.87],
  ["CC(=O)OCc1cc(Cc2ccccc2)n(O)c(=O)c1", "Isocitrate dehydrogenase [NADP] cytoplasmic (Homo sapiens, UniProt O75874, R132H)", "=", 5.35],
  ["O=c1ccc(-c2ccccc2)cn1O [1-HYDROXY-5-PHENYLPYRIDIN-2(1H)-ONE]", "Isocitrate dehydrogenase [NADP] cytoplasmic (Homo sapiens, UniProt O75874, R132H)", "=", 4.30],
  ["Cc1cc(Cc2ccc(-c3cccc(O)c3)cc2)n(O)c(=O)c1", "Isocitrate dehydrogenase [NADP] cytoplasmic (Homo sapiens, UniProt O75874, R132H)", "=", 6.57],
  ["Cc1cc(Cc2ccsc2)n(O)c(=O)c1", "Isocitrate dehydrogenase [NADP] cytoplasmic (Homo sapiens, UniProt O75874, R132H)", "=", 6.02],
  ["COc1ccc(-c2ccc(Cc3cc(C)cc(=O)n3O)cc2)cc1", "Isocitrate dehydrogenase [NADP] cytoplasmic (Homo sapiens, UniProt O75874, R132H)", "=", 6.47],
  ["Cc1cc(Cc2ccccc2)n(N)c(=O)c1", "Isocitrate dehydrogenase [NADP] cytoplasmic (Homo sapiens, UniProt O75874, R132H)", "=", 5.42],
  ["COC(=O)c1ccc(CCc2cccc(=O)n2O)cc1", "Isocitrate dehydrogenase [NADP] cytoplasmic (Homo sapiens, UniProt O75874, R132H)", "=", 4.57]
]}

====

# testedOn: Isocitrate dehydrogenase [NADP] cytoplasmic (Homo sapiens, UniProt O75874, R132H)
# assayExplanation: Inhibition of human IDH1 R132H mutant expressed in Escherichia coli BL21-CodonPlus assessed as reduction in NADPH consumption
parameterMeasured: log10 of Ki (log10 of the value in µM)

{"columns": ["smilesData", "log10 of Ki"],
 "data": [
  ["O=C(NO)c1cccc(=O)n1O", 0.65],
  ["Cc1cc(C)cc(Cc2cc(C)cc(=O)n2O)c1", 0.49],
  ["O=c1cccc(CCc2ccccc2)n1O", 1.00],
  ["O=c1cc(O)cc(Cc2ccccc2)n1O", -0.42],
  ["Cc1cc(Cc2ccc(C(F)(F)F)cc2)n(O)c(=O)c1", 0.51],
  ["COc1ccc(Cc2cc(C)cc(=O)n2O)cc1", -0.25],
  ["O=c1ccc(Oc2ccccc2)cn1O", 1.66],
  ["Cc1cc(Cc2cccc(C#N)c2)n(O)c(=O)c1", 0.20],
  ["COc1cccc(Cc2cc(C)cc(=O)n2O)c1", -0.82],
  ["Cc1cc(Cc2cccc(O)c2)n(O)c(=O)c1", -0.85],
  ["Cc1cc(Cc2ccccc2O)n(O)c(=O)c1", -0.19],
  ["Cc1cc(Cc2cccc3ccccc23)n(O)c(=O)c1", -0.02],
  ["Cc1ccn(O)c(=O)c1Cc1ccccc1", 0.98],
  ["Cc1cc(Cc2cccc(-c3ccccc3)c2)n(O)c(=O)c1", -0.22],
  ["Cc1cc(Cc2ccc(Oc3ccccc3)cc2)n(O)c(=O)c1", -0.12],
  ["Cc1cc(Cc2cccc3cc(O)ccc23)n(O)c(=O)c1", 1.44],
  ["Cc1cc(Cc2cccc(F)c2)n(O)c(=O)c1", 0.34],
  ["COc1cc(Cc2ccccc2)n(O)c(=O)c1", 0.74],
  ["Cc1cc(Cc2cc3ccccc3s2)n(O)c(=O)c1", 1.35],
  ["Cc1cc(Cc2cc(-c3ccccc3)cc(-c3ccccc3)c2)n(O)c(=O)c1", -0.52],
  ["Cc1cc(Cc2c(F)c(F)c(F)c(F)c2F)n(O)c(=O)c1", 0.34],
  ["Cc1cc(COc2ccccc2)n(O)c(=O)c1", -0.06],
  ["O=c1cc(CO)cc(Cc2ccccc2)n1O", 0.75],
  ["COc1cccc(Cc2c(C)ccn(O)c2=O)c1", 1.21],
  ["COc1ccc2c(Cc3cc(C)cc(=O)n3O)cccc2c1", 1.61],
  ["Cc1cc(Cc2ccc(-c3ccc(O)cc3)cc2)n(O)c(=O)c1", -0.60],
  ["COc1ccccc1Cc1cc(C)cc(=O)n1O", -0.31]
]}

====

# assayExplanation: Cytotoxicity against human HT1080 cells up to 30 uM
# Format: cell-based
# conditionDetails: ht-1080

{"columns": ["smilesData", "Activity"],
 "data": [
  ["Cc1cc(Cc2ccc(-c3ccc(O)cc3)cc2)n(O)c(=O)c1", "Non-toxic"],
  ["O=c1cc(O)cc(Cc2ccccc2)n1O", "Non-toxic"],
  ["COc1cccc(Cc2cc(C)cc(=O)n2O)c1", "Non-toxic"]
]}

====

# testedOn: Isocitrate dehydrogenase [NADP] cytoplasmic (Homo sapiens, UniProt O75874, R132H)
# assayExplanation: Inhibition of human IDH1 R132H mutant expressed in Escherichia coli BL21-CodonPlus assessed as reduction in NADPH consumption
This section presents compounds with their documented Ki values.

{"columns": ["compound", "Ki"],
 "data": [
  ["O=C(Cc1ccccc1)Nc1ccc(=O)n(O)c1", "> 50 µM"],
  ["Cc1cc(C)n(O)c(=O)c1", "> 50 µM"],
  ["O=c1ccc(CCc2ccccc2)cn1O", "> 50 µM"],
  ["Cc1cc(C2CCCCC2)n(O)c(=O)c1", "> 50 µM"],
  ["O=c1cccc(-c2ccccc2)n1O", "> 50 µM"],
  ["Cc1cc(Cc2cccc(C(=O)O)c2)n(O)c(=O)c1", "> 50 µM"],
  ["CC(c1ccccc1)c1cccc(=O)n1O (centres undefined)", "> 50 µM"],
  ["O=C(NCc1ccccc1)c1ccc(=O)n(O)c1", "> 50 µM"],
  ["O=c1ccc(CCCc2ccccc2)cn1O", "> 50 µM"]
]}
